Biological target: CFTR (Homo sapiens)
Assay: inside-out patch clamp of Xenopus oocytes
pEC50: −log10 of the molar value.
Property name: pEC50

What value of pEC50 has been recorded for this entry: O=C(O)c1cc([N+](=O)[O-])ccc1NCCCc1ccccc1 [NPPB, 5-nitro-2-(3-phenylpropylamino)benzoate] ~4.05

###

Kindly supply the reported Ki values for the records listed here.
Target: CFTR (Homo sapiens, UniProt P13569, E1371S)
Sequence (P13569 whole entry E1371S): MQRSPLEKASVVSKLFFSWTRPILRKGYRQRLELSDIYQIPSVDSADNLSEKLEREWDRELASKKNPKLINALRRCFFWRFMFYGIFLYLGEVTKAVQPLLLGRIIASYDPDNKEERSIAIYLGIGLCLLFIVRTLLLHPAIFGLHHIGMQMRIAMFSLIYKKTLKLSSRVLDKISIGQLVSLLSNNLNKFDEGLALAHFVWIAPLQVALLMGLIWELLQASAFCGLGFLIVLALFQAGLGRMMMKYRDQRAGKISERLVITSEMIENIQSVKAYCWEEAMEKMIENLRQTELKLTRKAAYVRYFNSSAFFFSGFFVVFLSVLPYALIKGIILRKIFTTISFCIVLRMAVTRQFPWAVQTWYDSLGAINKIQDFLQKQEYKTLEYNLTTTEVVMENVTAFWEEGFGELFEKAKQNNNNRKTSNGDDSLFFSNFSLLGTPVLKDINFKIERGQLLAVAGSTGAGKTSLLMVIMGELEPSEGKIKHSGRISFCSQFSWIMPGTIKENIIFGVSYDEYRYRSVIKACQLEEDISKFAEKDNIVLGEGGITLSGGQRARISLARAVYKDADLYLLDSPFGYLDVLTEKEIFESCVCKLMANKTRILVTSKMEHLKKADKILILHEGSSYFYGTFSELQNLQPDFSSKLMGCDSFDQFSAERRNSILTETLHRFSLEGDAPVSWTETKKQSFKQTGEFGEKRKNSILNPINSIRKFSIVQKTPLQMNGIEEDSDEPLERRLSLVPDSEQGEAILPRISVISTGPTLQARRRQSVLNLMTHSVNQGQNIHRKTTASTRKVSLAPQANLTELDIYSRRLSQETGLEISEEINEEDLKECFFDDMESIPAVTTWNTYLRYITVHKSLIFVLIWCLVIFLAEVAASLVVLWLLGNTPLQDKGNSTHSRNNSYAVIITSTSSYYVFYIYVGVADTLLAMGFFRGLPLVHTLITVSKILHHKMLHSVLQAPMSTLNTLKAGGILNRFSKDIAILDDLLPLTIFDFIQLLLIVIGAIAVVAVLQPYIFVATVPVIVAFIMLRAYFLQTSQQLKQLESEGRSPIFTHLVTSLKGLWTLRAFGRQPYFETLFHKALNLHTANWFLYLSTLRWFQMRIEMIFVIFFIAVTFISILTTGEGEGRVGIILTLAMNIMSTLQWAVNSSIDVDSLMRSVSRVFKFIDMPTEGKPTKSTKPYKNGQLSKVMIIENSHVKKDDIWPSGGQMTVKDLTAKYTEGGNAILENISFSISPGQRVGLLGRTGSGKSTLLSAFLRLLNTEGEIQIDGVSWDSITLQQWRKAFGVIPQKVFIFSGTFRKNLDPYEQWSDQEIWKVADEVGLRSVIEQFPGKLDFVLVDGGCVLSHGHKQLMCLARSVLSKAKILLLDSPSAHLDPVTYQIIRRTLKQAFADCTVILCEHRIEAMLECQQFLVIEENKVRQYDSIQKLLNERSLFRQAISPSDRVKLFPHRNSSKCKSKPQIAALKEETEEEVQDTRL
Experiment: inside-out patch clamp of Xenopus oocytes

- Compound: "O=C(O)c1cc([N+](=O)[O-])ccc1NCCCc1ccccc1 [NPPB, 5-nitro-2-(3-phenylpropylamino)benzoate]"
  Endpoint result: "~0.02 mM"

What value of Ki has been recorded for this entry: "O=S(=O)(O)CCCN1CCOCC1" ~8 mM
